The reported numbers originate from patent US12091426B2.

# TARGET OR TEST SYSTEM: HPK1 (Homo sapiens)
# Construct: A HiBiT tag was introduced by CRISPR on the N terminus of HPK1 in Jurkat cells; host or cells: Jurkat cells (ATCC TIB-152), monoclonal line with CRISPR knock-in of HiBiT at the endogenous HPK1 locus
# TEST PROTOCOL: HPK1 Cellular HiBit Degradation Assay
# Assay type: cell-based
# EXPERIMENTAL CONTEXT: HiBiT HPK1 Jurkat cells, 24 hrs; concentration at which 50% of HPK1 was remaining; read-out: DC50 Category
# Protocol: HPK1 Cellular HiBit Degradation Assay A HiBiT tag was introduced by CRISPR on the N terminus of HPK1 in Jurkat cells (ATCC® TIB-152) to allow quantitation of HPK1 protein levels in a monoclonal human cell line. […] Cells were incubated for 10 min at room temperature and luminescence was read on an EnVision plate reader (Perkin Elmer, 0.1 sec per well). […] Percent HPK1 remaining per sample was calculated as follows: […]
DC50 listing for selected compounds.

COMPOUND	TARGET OR TEST SYSTEM	VALUE KIND	MEASURED RESULT
CC(C)n1cnc2cc(-c3ccc4c(c3)N([C@H]3C[C@@H](N5CCCCC5)C3)C(=O)C43CCN(C(=O)C4(C)CCN(C(=O)[C@H]5CC[C@H](Oc6ccc(N7CCC(=O)NC7=O)cn6)CC5)CC4)CC3)nc(Nc3ccccc3F)c21 [Example 108]	HPK1 (Homo sapiens)	DC50	< 100 nM
CC(C)n1cnc2cc(-c3ccc4c(c3)N([C@H]3C[C@@H](N5CCCCC5)C3)C(=O)C43CCN(C(=O)[C@@H]4CCN(C(=O)C5CCN(c6ccc(C7CCC(=O)NC7=O)cn6)CC5)[C@@H]4C)CC3)nc(Nc3ccccc3F)c21 (mixture of isomers) [Example 249]	HPK1 (Homo sapiens)	DC50	< 100 nM
CC(C)n1cnc2cc(-c3ccc4c(c3)N([C@H]3C[C@@H](N5CCCCC5)C3)C(=O)C43CCN(C(=O)[C@]4(C)CCN(C(=O)[C@H]5CC[C@H](Oc6ccc(C7CCC(=O)NC7=O)cn6)CC5)C4)CC3)nc(NC3CC3)c21 (some centres unmarked) [Example 163]	HPK1 (Homo sapiens)	DC50	100 to 500 nM
CC(C)n1cnc2cc(-c3ccc4c(c3)N([C@H]3C[C@@H](N5CCCCC5)C3)C(=O)C43CCN(C(=O)C4(C)CCN(C(=O)C5CCN(c6ccc(C7CCC(=O)NC7=O)cn6)CC5)CC4)CC3)nc(Oc3ccccc3)c21 (some centres unmarked) [Example 168]	HPK1 (Homo sapiens)	DC50	< 100 nM

Proceeding to the next compound to report its DC50.
Q: Need DC50, item CC(C)n1cnc2cc(-c3ccc4c(c3)N([C@H]3C[C@@H](N5CCCCC5)C3)C(=O)C43CCN(C(=O)C4CCN(C(=O)C5CCN(c6ccc(C7CCC(=O)NC7=O)cn6)CC5)CC4)CC3)nc(Oc3ccccc3F)c21 (mixture of isomers) [Example 76]
Ans: 100 to 500 nM

* * *

# maps each entry to its Dmax
# TARGET OR TEST SYSTEM: HPK1 (Homo sapiens, UniProt Q92918)
# Construct: A HiBiT tag was introduced by CRISPR on the N terminus of HPK1 in Jurkat cells; host or cells: Jurkat cells (ATCC TIB-152), monoclonal line with CRISPR knock-in of HiBiT at the endogenous HPK1 locus
# Sequence (Q92918 whole entry): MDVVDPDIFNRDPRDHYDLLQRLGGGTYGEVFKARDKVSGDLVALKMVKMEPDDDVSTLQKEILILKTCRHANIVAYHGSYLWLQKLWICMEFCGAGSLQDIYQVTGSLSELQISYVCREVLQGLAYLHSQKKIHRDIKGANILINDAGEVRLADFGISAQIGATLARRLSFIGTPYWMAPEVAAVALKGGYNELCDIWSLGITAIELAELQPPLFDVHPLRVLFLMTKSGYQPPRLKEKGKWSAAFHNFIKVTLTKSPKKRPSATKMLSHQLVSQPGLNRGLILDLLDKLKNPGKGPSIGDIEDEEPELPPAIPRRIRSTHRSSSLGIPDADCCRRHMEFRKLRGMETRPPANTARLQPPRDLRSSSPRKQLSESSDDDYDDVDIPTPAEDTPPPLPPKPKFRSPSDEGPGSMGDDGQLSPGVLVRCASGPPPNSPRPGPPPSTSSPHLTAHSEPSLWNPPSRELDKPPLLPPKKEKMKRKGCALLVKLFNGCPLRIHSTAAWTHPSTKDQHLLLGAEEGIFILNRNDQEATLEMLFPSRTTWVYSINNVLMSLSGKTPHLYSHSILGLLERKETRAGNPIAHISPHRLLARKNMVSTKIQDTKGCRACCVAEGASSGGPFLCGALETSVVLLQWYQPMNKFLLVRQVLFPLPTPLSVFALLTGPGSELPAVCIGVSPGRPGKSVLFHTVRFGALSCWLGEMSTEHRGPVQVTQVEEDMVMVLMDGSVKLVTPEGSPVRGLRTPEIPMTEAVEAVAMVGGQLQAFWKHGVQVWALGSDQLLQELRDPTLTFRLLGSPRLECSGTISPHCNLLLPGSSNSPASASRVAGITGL
# TEST PROTOCOL: HPK1 Cellular HiBit Degradation Assay
# Type: cell-based
# EXPERIMENTAL CONTEXT: Jurkat, HiBiT HPK1 Jurkat cells, 24 hrs; maximum degradation vs DMSO vehicle control; read-out: Dmax Category

COMPOUND	MEASURED RESULT
CC(C)n1cnc2cc(-c3ccc4c(c3)N([C@H]3C[C@@H](N5CCCCC5)C3)C(=O)C43CCN(C(=O)[C@@H]4CCN(C(=O)C5CCN(c6ccc(N7CCC(=O)NC7=O)cc6)CC5)C4)CC3)nc(NC3CC3)c21	70 to 85%
CC(C)n1cnc2cc(-c3ccc4c(c3)N([C@H]3C[C@@H](N5CCCCC5)C3)C(=O)C43CCN(C(=O)[C@@H]4CCN(C(=O)[C@H]5CC[C@H](Nc6ccc(C7CCC(=O)NC7=O)cc6)CC5)C4)CC3)nc(NC3CC3)c21 (mixture of isomers)	70 to 85%
Cc1cc(N2CCC(C(=O)N3CCC(C)(C(=O)N4CCC5(CC4)C(=O)N([C@H]4C[C@@H](N6CCCCC6)C4)c4cc(-c6cc7ncn(C(C)C)c7c(NC7CC7)n6)ccc45)CC3)CC2)ccc1C1CCC(=O)NC1=O (mixture of isomers)	70 to 85%

For the next question, use this compound.
Q: # input compound: CC1C(C(=O)N2CCC3(CC2)C(=O)N([C@H]2C[C@@H](N4CCCCC4)C2)c2cc(-c4cc5ncn(C(C)C)c5c(NC5CC5)n4)ccc23)CCCN1C(=O)C1CCN(c2ccc(C3CCC(=O)NC3=O)cc2)CC1 (mixture of isomers) ; wanted: its Dmax
Ans: 50 to 70%
